Quick reference: relative viability of the listed items.
- System: NCI-H2009
- method notes: relative viability (nuclei count vs DMSO), 5 days (fraction); higher = more cells survive
- test conditions: first compound 0.6325 µM

compound | target desc | assay readout | assay result
CN1CCN(CCOc2cc(OC3CCOCC3)c3c(Nc4c(Cl)ccc5c4OCO5)ncnc3c2)CC1 [Saracatinib] + Cc1nc(NC(=O)N2CCC[C@H]2C(N)=O)sc1-c1ccnc(C(C)(C)C(F)(F)F)c1 [Alpelisib] (partner 2 µM) | NCI-H2009 | relative viability | 1.01
CN1CCN(CCOc2cc(OC3CCOCC3)c3c(Nc4c(Cl)ccc5c4OCO5)ncnc3c2)CC1 [Saracatinib] + Cc1cc(Nc2cc(N3CCN(C)CC3)nc(Sc3ccc(NC(=O)C4CC4)cc3)n2)n[nH]1 [Tozasertib] (partner 0.1 µM) | NCI-H2009 | relative viability | 0.5

Please provide the recorded relative viability for Cc1csc(=NC2CCCCC2)n1/N=C/c1ccc(O)c(O)c1O [MIM1] + Cc1cc(Nc2cc(N3CCN(C)CC3)nc(Sc3ccc(NC(=O)C4CC4)cc3)n2)n[nH]1 [Tozasertib] (partner 0.1 µM) , tested on NCI-H2009. 0.701

One more compound: CN1CCN(CCOc2cc(OC3CCOCC3)c3c(Nc4c(Cl)ccc5c4OCO5)ncnc3c2)CC1 [Saracatinib] + CC(C)C[C@H](NC(=O)[C@H](Cc1ccccc1)NC(=O)c1cnccn1)B(O)O [Bortezomib] (partner 0.002 µM) 1.03

* * *

Quick reference: relative viability of the listed items.
- Tested on: EKVX
- method notes: relative viability (nuclei count vs DMSO), 5 days (fraction); higher = more cells survive
- test conditions: first compound 0.2 µM
Output: the number by itself.

The following compounds have reported results that may help.
compound | relative viability
CN1CCN(CCOc2cc(OC3CCOCC3)c3c(Nc4c(Cl)ccc5c4OCO5)ncnc3c2)CC1 [Saracatinib] + CS(=O)(=O)CCNCc1ccc(-c2ccc3ncnc(Nc4ccc(OCc5cccc(F)c5)c(Cl)c4)c3c2)o1 [Lapatinib] (partner 2 µM) | 0.165
Cc1csc(=NC2CCCCC2)n1/N=C/c1ccc(O)c(O)c1O [MIM1] + NC(=O)Nc1cc(-c2cccc(F)c2)sc1C(=O)N[C@H]1CCCNC1 [AZD7762] (partner 0.2 µM) | 0.697
Cc1csc(=NC2CCCCC2)n1/N=C/c1ccc(O)c(O)c1O [MIM1] + CC(C)C[C@H](NC(=O)[C@H](Cc1ccccc1)NC(=O)c1cnccn1)B(O)O [Bortezomib] (partner 0.002 µM) | 1.03

Attention now turns to another entry.
Fill in the blank: the reported relative viability of Cc1csc(=NC2CCCCC2)n1/N=C/c1ccc(O)c(O)c1O [MIM1] + CC(=O)c1c(C)c2cnc(Nc3ccc(N4CCNCC4)cn3)nc2n(C2CCCC2)c1=O [Palbociclib] (partner 0.5 µM) is ____. 0.332

* * *

- Test system: NCI-H2170
- method notes: relative viability (nuclei count vs DMSO), 5 days (fraction); higher = more cells survive
- test conditions: first compound 0.006325 µM
assay readout: relative viability
Output: the number by itself.

compound | target desc | relative viability
CCNC(=O)c1noc(-c2cc(C(C)C)c(O)cc2O)c1-c1ccc(CN2CCOCC2)cc1 [Luminespib] + Nc1nc2[nH]cc(CCc3ccc(C(=O)N[C@@H](CCC(=O)O)C(=O)O)cc3)c2c(=O)[nH]1 [Pemetrexed] (partner 0.2 µM) | NCI-H2170 | 0.267

Fill in the blank: the reported relative viability of CCNC(=O)c1noc(-c2cc(C(C)C)c(O)cc2O)c1-c1ccc(CN2CCOCC2)cc1 [Luminespib] + Cc1nc(Nc2ncc(C(=O)Nc3c(C)cccc3Cl)s2)cc(N2CCN(CCO)CC2)n1 [Dasatinib] (partner 0.075 µM) is ____. 0.578

* * *

- Tested on: NCI-H2009
- method notes: relative viability (nuclei count vs DMSO), 5 days (fraction); higher = more cells survive
- test conditions: first compound 0.1 µM
assay readout: relative viability
Output: the number by itself.

The following compounds have reported results that may help.
compound | assay result
Cc1cn(-c2cc(NC(=O)c3ccc(C)c(Nc4nccc(-c5cccnc5)n4)c3)cc(C(F)(F)F)c2)cn1 [Nilotinib] + C[C@]1(O)C[C@@H](c2nc(-c3ccc4ccc(-c5ccccc5)nc4c3)c3c(N)nccn32)C1 [Linsitinib] (partner 1 µM) | 1.15
Cc1cn(-c2cc(NC(=O)c3ccc(C)c(Nc4nccc(-c5cccnc5)n4)c3)cc(C(F)(F)F)c2)cn1 [Nilotinib] + COc1cc2c(Oc3ccc(NC(=O)C4(C(=O)Nc5ccc(F)cc5)CC4)cc3F)ccnc2cc1OCCCN1CCOCC1 [Foretinib] (partner 0.25 µM) | 1.1

Fill in the blank: the reported relative viability of Cc1cn(-c2cc(NC(=O)c3ccc(C)c(Nc4nccc(-c5cccnc5)n4)c3)cc(C(F)(F)F)c2)cn1 [Nilotinib] + Nc1ncn([C@H]2C[C@H](O)[C@@H](CO)O2)c(=O)n1 [Decitabine] (partner 2 µM) is ____. 0.421

One more compound: Cc1cn(-c2cc(NC(=O)c3ccc(C)c(Nc4nccc(-c5cccnc5)n4)c3)cc(C(F)(F)F)c2)cn1 [Nilotinib] + CC(=O)Nc1cccc(-n2c(=O)n(C3CC3)c(=O)c3c(Nc4ccc(I)cc4F)n(C)c(=O)c(C)c32)c1 [Trametinib] (partner 0.02 µM) 0.197

* * *

Quick reference: relative viability of the listed items.
- Tested on: HCC-44
- method notes: relative viability (nuclei count vs DMSO), 5 days (fraction); higher = more cells survive
- test conditions: first compound 0.01 µM

The following molecules have reported results that may help.
molecule | target desc | assay result
Cc1cn(-c2cc(NC(=O)c3ccc(C)c(Nc4nccc(-c5cccnc5)n4)c3)cc(C(F)(F)F)c2)cn1 [Nilotinib] + CS(=O)(=O)N1CCN(Cc2cc3nc(-c4cccc5[nH]ncc45)nc(N4CCOCC4)c3s2)CC1 [Pictilisib] (partner 1 µM) | HCC-44 | 0.589
Cc1cn(-c2cc(NC(=O)c3ccc(C)c(Nc4nccc(-c5cccnc5)n4)c3)cc(C(F)(F)F)c2)cn1 [Nilotinib] + Nc1ncn([C@H]2C[C@H](O)[C@@H](CO)O2)c(=O)n1 [Decitabine] (partner 2 µM) | HCC-44 | 0.969

Fill in the blank: the reported relative viability of Cc1cn(-c2cc(NC(=O)c3ccc(C)c(Nc4nccc(-c5cccnc5)n4)c3)cc(C(F)(F)F)c2)cn1 [Nilotinib] + Nc1nc2[nH]cc(CCc3ccc(C(=O)N[C@@H](CCC(=O)O)C(=O)O)cc3)c2c(=O)[nH]1 [Pemetrexed] (partner 0.2 µM) is ____. 0.613

One more molecule: Cc1cn(-c2cc(NC(=O)c3ccc(C)c(Nc4nccc(-c5cccnc5)n4)c3)cc(C(F)(F)F)c2)cn1 [Nilotinib] + CC1(C)CCC(c2ccc(Cl)cc2)=C(CN2CCN(c3ccc(C(=O)NS(=O)(=O)c4ccc(N[C@H](CCN5CCOCC5)CSc5ccccc5)c(S(=O)(=O)C(F)(F)F)c4)cc3)CC2)C1 [Navitoclax] (partner 0.5 µM) 1.39

One more molecule: Cc1cn(-c2cc(NC(=O)c3ccc(C)c(Nc4nccc(-c5cccnc5)n4)c3)cc(C(F)(F)F)c2)cn1 [Nilotinib] + CC(C)C[C@H](NC(=O)[C@H](Cc1ccccc1)NC(=O)c1cnccn1)B(O)O [Bortezomib] (partner 0.002 µM) 0.853

* * *

- Test system: A549
- method notes: relative viability (nuclei count vs DMSO), 5 days (fraction); higher = more cells survive
- test conditions: first compound 0.6325 µM
Output TRUE for records whose relative viability is lower than 0.9, FALSE for records at or above 0.9.

molecule | group label
CN1CCN(CCOc2cc(OC3CCOCC3)c3c(Nc4c(Cl)ccc5c4OCO5)ncnc3c2)CC1 [Saracatinib] + CS(=O)(=O)N1CCN(Cc2cc3nc(-c4cccc5[nH]ncc45)nc(N4CCOCC4)c3s2)CC1 [Pictilisib] (partner 1 µM) | TRUE
CN1CCN(CCOc2cc(OC3CCOCC3)c3c(Nc4c(Cl)ccc5c4OCO5)ncnc3c2)CC1 [Saracatinib] + CC1(C)CCC(c2ccc(Cl)cc2)=C(CN2CCN(c3ccc(C(=O)NS(=O)(=O)c4ccc(N[C@H](CCN5CCOCC5)CSc5ccccc5)c(S(=O)(=O)C(F)(F)F)c4)cc3)CC2)C1 [Navitoclax] (partner 0.5 µM) | FALSE
Cc1csc(=NC2CCCCC2)n1/N=C/c1ccc(O)c(O)c1O [MIM1] + CC1(C)CCC(c2ccc(Cl)cc2)=C(CN2CCN(c3ccc(C(=O)NS(=O)(=O)c4ccc(N[C@H](CCN5CCOCC5)CSc5ccccc5)c(S(=O)(=O)C(F)(F)F)c4)cc3)CC2)C1 [Navitoclax] (partner 0.5 µM) | FALSE

Quick check: does CN1CCN(CCOc2cc(OC3CCOCC3)c3c(Nc4c(Cl)ccc5c4OCO5)ncnc3c2)CC1 [Saracatinib] + C[C@@H](Oc1cc(-c2cnn(C3CCNCC3)c2)cnc1N)c1c(Cl)ccc(F)c1Cl [Crizotinib] (partner 1 µM) have relative viability under 0.9? TRUE
